# tested.target: T1, recombinant cyno monkey PCSK9 protein (cyno monkey, UniProt A8T666 31-692 (rhesus entry), limits assumed, biotinylated in the ELISA assays)
# T1 construct: also called cyno PCSK9; Cyno Monkey PCSK9-His
# T1 sequence (A8T666 31-692 limits assumed): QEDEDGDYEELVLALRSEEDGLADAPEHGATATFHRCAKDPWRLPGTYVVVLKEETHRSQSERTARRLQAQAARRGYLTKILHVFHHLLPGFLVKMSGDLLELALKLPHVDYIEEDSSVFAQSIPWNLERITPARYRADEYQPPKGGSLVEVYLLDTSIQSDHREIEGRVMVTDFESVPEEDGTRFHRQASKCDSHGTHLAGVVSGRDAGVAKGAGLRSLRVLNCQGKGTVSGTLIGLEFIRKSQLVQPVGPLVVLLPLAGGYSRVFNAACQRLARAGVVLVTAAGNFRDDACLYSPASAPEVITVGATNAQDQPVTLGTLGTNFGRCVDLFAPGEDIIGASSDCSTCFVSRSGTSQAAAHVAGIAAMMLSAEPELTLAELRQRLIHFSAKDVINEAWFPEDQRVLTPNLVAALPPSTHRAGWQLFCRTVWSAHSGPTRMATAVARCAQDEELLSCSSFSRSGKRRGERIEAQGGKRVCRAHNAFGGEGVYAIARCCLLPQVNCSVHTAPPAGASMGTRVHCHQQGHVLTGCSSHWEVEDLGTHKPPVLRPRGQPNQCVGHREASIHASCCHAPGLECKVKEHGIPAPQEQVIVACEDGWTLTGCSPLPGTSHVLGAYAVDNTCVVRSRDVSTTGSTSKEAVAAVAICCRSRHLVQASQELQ
# experimental.protocol: ELISA; antibody 0.067 nM
Listed below: OD450 nm values for each entry.
assay.metric: OD450 nm (OD450 nm)

[
  {
    "binder": "74C10A8, fully human anti-PCSK9 antibody (antibody, human IgG1, V domains shown) VH: QVQLQESGPGLVKPSETLSLTCSVSGGSINTYYWSWIRQPPGKGLEWIGYIYYSGSTNYNPSLKSRVTISVDTSKNQFSLKLTSVTAADTAVYYCARERFTMVRGVMMDYYYYGMDVWGQGTTVTVSS VL: DIQLTQSPSFLSASVGDRVTITCRASQGISSYLAWYQQKPGKAPKLLIYAASTLQSGVPSRFSGSGSGTEFTLTISSLQPEDFATYYCQQLNSYPRTFGQGTKVEIK",
    "unit.of.measurement": "OD450 nm",
    "numeric.value": 0.48
  },
  {
    "binder": "152G2F7, fully human anti-PCSK9 antibody (antibody, human IgG1, V domains shown) VH: EVQLVESGGGLVQPGGSLRLSCAASEFTFGGYWMTWVRQAPGKGLEWVANIKQDGSEKYYVDSVKGRFTISRDNAKNSLYLHMNSLRAEDTAVYYCARDRTTMIRGVSLYYYYYGMDVWGQGTAVTVSS VL: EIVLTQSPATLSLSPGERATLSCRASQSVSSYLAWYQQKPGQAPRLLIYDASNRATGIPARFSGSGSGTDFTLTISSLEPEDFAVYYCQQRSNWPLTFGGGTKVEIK",
    "unit.of.measurement": "OD450 nm",
    "numeric.value": 0.26
  },
  {
    "binder": "76A1B11, fully human anti-PCSK9 antibody (antibody, human IgG1, V domains shown) VH: QVQLVESGGGVVQPGRSLRLSCAATGFTFSIYGMHWVRQAPGKGLEWVAVIWYDGSNKYYADSVKGRFIISRDNSKNTLYLQMNSLRVEDTAVYYCVSDYFGSGNSYYYYGMDVWGQGTTVTVSS VL: DIQMTQSPSSLSASVGDRVTITCRASQVISNYLAWYQQKPGKVPKLLIYTASTLQSGVPSRFSGSGSGADFTLTISSLQPEDVATYYCQKYNSAPYTFGQGTKLEIK",
    "unit.of.measurement": "OD450 nm",
    "numeric.value": 1.46
  },
  {
    "binder": "139G1C5, fully human anti-PCSK9 antibody (antibody, human IgG1, V domains shown) VH: QVQLQESGPGLVKPSGTLSLTCAVSGGSISRNNWWSWVRQPPGKGLEWIGEIYHSGSTNYNPSLKSRVTISVDKSKNQFSLKLSSVTAADTAVYYCARDLLGIGLDYWGQGTLVTVSS VL: EFVLTQSPATLSLSPGERAILSCRASQSFSSYIAWYQQKPGQAPRLLIYDASNRATGIPARFSGSGSGTDFTLTISSLEPEDFAVYYCQQHSNWMYTFGQGTKLEIK",
    "unit.of.measurement": "OD450 nm",
    "numeric.value": 1.84
  }
]
